FYI, the data here is from patent US11390437B2.

experiment: Cannabinoid uptake, pump action sublingual spray; assay type: in vivo, human; details: human, plasma, dose approx 21 mg THC and 35 mg CBD, read-out: AUC 0-12
Known AUC(0-t) of a selection of compounds

C=C(C)[C@@H]1CCC(C)=C[C@H]1c1c(O)cc(CCCCC)cc1O ... ~22 ng·h/mL

Here's the next entry for you.
[in] If you can, please state the reported AUC(0-t) value of CCCCCc1cc(O)c2c(c1)OC(C)(C)[C@@H]1CCC(C)=C[C@@H]21 [THC, Δ^9-tetrahydrocannabinol] .
[out] ~16 ng·h/mL

----------
Experiment: Cannabinoid uptake in patients, drops applied sublingually
Assay type: in vivo, human
Settings: human, plasma; sublingual drops; dose approx 20 mg of each cannabinoid; read-out: AUC 0-12
Protocol: Initially the applicant looked at cannabinoid uptake in patients by applying drops sublingually (BDS dissolved in a mixture of a glycerol/propylene glycol and ethanol) THC 5 mg/ml, CBD 5 mg/ml and THC/CBD 5 mg/ml plus 5 mg/ml. The results are noted in Table 3 below: The proportion of 11 hydroxy tetrahydro cannabinol to THC (AUC 0-12) was about 1.9 indicating a significant amount of oral ingestion may have occurred. […]
Known AUC(0-t) of a selection of compounds

CCCCCc1cc(O)c2c(c1)OC(C)(C)[C@@H]1CCC(C)=C[C@@H]21 [THC, Δ^9-tetrahydrocannabinol] ... ~16 ng·h/mL

Here's the next entry for you.
[in] If you can, please state the reported AUC(0-t) value of C=C(C)[C@@H]1CCC(C)=C[C@H]1c1c(O)cc(CCCCC)cc1O .
[out] ~8 ng·h/mL

----------
test: Cannabinoid uptake in patients, drops applied sublingually; format: in vivo, human; conditions: human, plasma; sublingual drops; dose approx 20 mg of each cannabinoid
measured.metric: Cmax (ng/mL)
Field format: number, assumed ng/mL, no unit text.

C=C(C)[C@@H]1CCC(C)=C[C@H]1c1c(O)cc(CCCCC)cc1O ... 2

Here's the next entry for you.
[in] If you can, please state the reported Cmax value of CCCCCc1cc(O)c2c(c1)OC(C)(C)[C@@H]1CCC(C)=C[C@@H]21 [THC, Δ^9-tetrahydrocannabinol] .
[out] 6
